Reported values of revertant His+ colonies TA100 for individual entries
# Tested on: Salmonella enterica serovar Typhimurium TA100
# Procedure details: Salmonella/microsome assay, TA100
# Reported conditions: +S9, 150 µM

>  <Compound>
CC(=O)Nc1ccccc1C(F)(F)C(=O)NCC[C@@H]1C[C@H](CC(=O)OC(C)(C)C)OC(C)(C)O1 [Compound 13a]

>  <Experimental system>
Salmonella enterica serovar Typhimurium TA100

>  <revertant His+ colonies TA100>
244

$$$$
>  <Compound>
CC(=O)Nc1ccc(Br)cc1C(F)(F)C(=O)NCC[C@@H]1C[C@H](CC(=O)OC(C)(C)C)OC(C)(C)O1 [Compound 13d]

>  <Experimental system>
Salmonella enterica serovar Typhimurium TA100

>  <revertant His+ colonies TA100>
174

$$$$
>  <Compound>
CC(=O)Nc1ccc(C)cc1C(F)(F)C(=O)NCC[C@@H]1C[C@H](CC(=O)OC(C)(C)C)OC(C)(C)O1 [Compound 13b]

>  <Experimental system>
Salmonella enterica serovar Typhimurium TA100

>  <revertant His+ colonies TA100>
260

$$$$
>  <Compound>
CC(=O)Nc1ccc(Cl)cc1C(F)(F)C(=O)NCC[C@@H]1C[C@H](CC(=O)OC(C)(C)C)OC(C)(C)O1 [Compound 13c]

>  <Experimental system>
Salmonella enterica serovar Typhimurium TA100

>  <revertant His+ colonies TA100>
278

$$$$

====

# Test system: Salmonella enterica serovar Typhimurium TA98
# Procedure details: Salmonella/microsome assay, TA98
# Reported conditions: −S9, 15 µM
Reported values of revertant His+ colonies TA98 for individual entries

>  <Compound>
CC(=O)Nc1ccccc1C(F)(F)C(=O)NCC[C@@H]1C[C@H](CC(=O)OC(C)(C)C)OC(C)(C)O1 [Compound 13a]

>  <Experimental system>
Salmonella enterica serovar Typhimurium TA98

>  <revertant His+ colonies TA98>
29

$$$$
>  <Compound>
CC(=O)Nc1ccc(Br)cc1C(F)(F)C(=O)NCC[C@@H]1C[C@H](CC(=O)OC(C)(C)C)OC(C)(C)O1 [Compound 13d]

>  <Experimental system>
Salmonella enterica serovar Typhimurium TA98

>  <revertant His+ colonies TA98>
23

$$$$
>  <Compound>
CC(=O)Nc1ccc(Cl)cc1C(F)(F)C(=O)NCC[C@@H]1C[C@H](CC(=O)OC(C)(C)C)OC(C)(C)O1 [Compound 13c]

>  <Experimental system>
Salmonella enterica serovar Typhimurium TA98

>  <revertant His+ colonies TA98>
21

$$$$
>  <Compound>
CC(=O)Nc1ccc(C)cc1C(F)(F)C(=O)NCC[C@@H]1C[C@H](CC(=O)OC(C)(C)C)OC(C)(C)O1 [Compound 13b]

>  <Experimental system>
Salmonella enterica serovar Typhimurium TA98

>  <revertant His+ colonies TA98>
19

$$$$

====

# Procedure details: Salmonella/microsome assay, TA104
# Reported conditions: Salmonella enterica serovar Typhimurium, S. typhimurium TA104 without S9 mix, pH 7.4, LC50 (bacterial cytotoxicity) TA104, absence of S9 mix

>  <Compound>
CC(=O)Nc1ccc(C)cc1C(F)(F)C(=O)NCC[C@@H]1C[C@H](CC(=O)OC(C)(C)C)OC(C)(C)O1 [Compound 13b]

>  <CC50 at 30 min>
> 1.5 mM

$$$$

====

# System: Salmonella enterica serovar Typhimurium TA104
# Procedure details: Salmonella/microsome assay, TA104
# Reported conditions: +S9, 300 µM

>  <Molecule>
CC(=O)Nc1ccc(C)cc1C(F)(F)C(=O)NCC[C@@H]1C[C@H](CC(=O)OC(C)(C)C)OC(C)(C)O1 [Compound 13b]

>  <revertant His+ colonies TA104>
449

$$$$
>  <Molecule>
CC(=O)Nc1ccccc1C(F)(F)C(=O)NCC[C@@H]1C[C@H](CC(=O)OC(C)(C)C)OC(C)(C)O1 [Compound 13a]

>  <revertant His+ colonies TA104>
268

$$$$
>  <Molecule>
CC(=O)Nc1ccc(Br)cc1C(F)(F)C(=O)NCC[C@@H]1C[C@H](CC(=O)OC(C)(C)C)OC(C)(C)O1 [Compound 13d]

>  <revertant His+ colonies TA104>
589

$$$$
>  <Molecule>
CC(=O)Nc1ccc(Cl)cc1C(F)(F)C(=O)NCC[C@@H]1C[C@H](CC(=O)OC(C)(C)C)OC(C)(C)O1 [Compound 13c]

>  <revertant His+ colonies TA104>
297

$$$$

This collection of values is drawn from paper PMC10301432.
